Target Or Test System: T1, human TF ECD-His (hTF-his) (human, UniProt P13726 33-251)
T1 construct: also called bio-hTF-his; human TF-His protein
Measurement Protocol: SPR Biacore T200, antibody on Protein A chip, TF-His as analyte, 1:1 model
Endpoint: koff (s⁻¹)
One number for each entry, in s⁻¹.

The following binders have reported results that may help.
Which koff is reported for this binder? hu67-12 (antibody, human IgG1, kappa, V domains shown) VH: EVQLQESGPGLVKPSQTLSLTCTVSGFSLTNYGVNWIRQPPRKGLEWIGVIWSRGNTDYNAAFISRVTISKDNSKSQVSLKLSSVTAADTAVYYCARKDAVVATDALDYWGQGTTVTVSS VL: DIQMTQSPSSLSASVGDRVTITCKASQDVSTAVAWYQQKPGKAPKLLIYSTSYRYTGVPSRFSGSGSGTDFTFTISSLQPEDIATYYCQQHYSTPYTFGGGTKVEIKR
0.000731

Which koff is reported for this binder? hu67Y116 (antibody, human IgG1, kappa, V domains shown) VH: EVQLQESGPGLVKPSQTLSLTCTVSGFSLTNYGVNWIRQSPGKGLEWIGVIWSRGNTDYNAAFKSRVTISKDTSKNQVSLKLSSVTAADTAVYYCARKDAIVATDALDYWGQGTTVTVSS VL: DIQMTQSPSSLSASVGDRVTITCKASQDVQTAVAWYQQKPGKAPKLLIYSTHYRYTGVPSRFSGSGSGTDFTFTISSLQPEDIATYYCLQSYTLPFSFGGGTKVEIKR
0.00263

Which koff is reported for this binder? hu67-9 (antibody, human IgG1, kappa, V domains shown) VH: EVTLKQSGPVLVKPTQTLTLTCTVSGFSLTNYGVNWIRQPPRKALEWLAVIWSRGNTDYNAAFISRLTISKDTSKSQVVLKMTNMDPVDTATYYCARKDAVVATDALDYWGQGTTVTVSS VL: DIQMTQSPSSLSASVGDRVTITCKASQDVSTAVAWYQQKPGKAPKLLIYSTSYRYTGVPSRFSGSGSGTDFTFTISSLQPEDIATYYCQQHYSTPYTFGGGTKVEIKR
0.000564

Read the next record carefully.
Which koff is reported for this binder? hu310-2 (antibody, human IgG1, kappa, V domains shown) VH: EVQLVQSGAEVKKPGASVKVSCKASGYSFTGYYMNWVRQAPGQGLEWMGEINPSTGGSTYNQKFKARVTMTVDQSTSTVYMELSSLRSEDTAVYYCARRELGGPFGYWGQGTTVTVSS VL: SIVMTQSPDSLAVSLGERATINCKASQSVSNGIAWYQQKPGQSPKLLIYFASNRYTGVPDRFSGSGYGTDFTLTISSLQAEDVAVYYCQQDYSSPWTFGGGTKVEIKR
0.00699

Data origin: patent EP4703388A1
